Entry source: PubChem BioAssay (NCI)

- System: NCI/ADR-RES ovarian
- assay protocol: NCI-60 one-dose screen, 48 h
- assay conditions: 10 µM unless noted
The panel holds about 83,000 compounds, 20% with a hit somewhere; the sample as a whole holds those more often. Activity calls are given as the source filed them. The calls were made as follows: active = growth percent below 10; inactive = the rest.
Outcome field: choose from active, inactive

Take a look at these entries with their results.
molecule=CCCS(=O)(=O)c1nc(NC2CC2)cc(-c2ccc3c(ccn3C3CC(C)(C)NC(C)(C)C3)c2)n1 subject_of_test="NCI/ADR-RES ovarian" class=inactive
molecule=CCCCCCCN(CCCCCCC)C(=N)c1ccc(OC)c2ccccc12 subject_of_test="NCI/ADR-RES ovarian" class=active
molecule=c1ccc([P+](CCC[P+](c2ccccc2)(c2ccccc2)c2ccccc2)(c2ccccc2)c2ccccc2)cc1 subject_of_test="NCI/ADR-RES ovarian" class=inactive
molecule=COc1ncc(-c2ccc3ncnc(Nc4cccc(Cl)c4)c3c2)cc1N(S(C)(=O)=O)S(C)(=O)=O subject_of_test="NCI/ADR-RES ovarian" class=inactive
molecule=COc1ccc(-n2c(C)cc(-c3ccccc3)c2C)cc1 subject_of_test="NCI/ADR-RES ovarian" class=inactive
molecule=COc1ccc(S(=O)(=O)Nc2cc(/C=C\c3cc(OC)c(OC)c(OC)c3)cc(OC)c2OC)cc1OC subject_of_test="NCI/ADR-RES ovarian" class=inactive

In this assay, the call recorded for "COc1cccc(-c2nc3sccn3c2-c2ccnc(NCCNS(=O)(=O)c3ccccc3)n2)c1" was what?
inactive

In this assay, the call recorded for O=C(NCCc1c[nH]c2ccccc12)C1Cc2ccccc2CN1C(=O)c1ccco1 (stereo not given) was what?
inactive

In this assay, the call recorded for N#CC1=C(N)OC2=C(C(=O)CCC2)C1c1ccco1 (stereo not given) was what?
inactive

In this assay, the call recorded for "CCCCCCCCCCn1cc[n+](C)c1" was what?
inactive

* * *

- Test system: OVCAR-3 ovarian
- assay protocol: NCI-60 one-dose screen, 48 h (100 = growth as untreated, 0 = no growth, -100 = all killed)
- assay conditions: 10 µM unless noted
About 83,000 compounds went through this panel and 20% of them were active in at least one assay; those are over-represented in the sample as a whole.
Parameter threshold = 70%. Response is Fulfilled when growth meets or exceeds it, else Not fulfilled.

Take a look at these entries with their results.
compound="COc1cc2c(cc1OC)C1(C)N(CC2)C(=O)OC1(C)C (centres undefined)" class=Fulfilled
compound=Nc1c(C(=O)Nc2cccc(Cl)c2Cl)sc2nc3c(cc12)C(=O)CCC3 class=Fulfilled
compound=COc1cc2nc(N3CCC[C@@H](NC4=CC(=O)c5ccccc5C4=O)C3)nc(N)c2cc1OC class="Not fulfilled"
compound=COc1cc(OC)c(C(=O)/C=C/c2ccc(C#N)cc2)c(OC)c1 class="Not fulfilled"

// inclusive: growth at least 70%? input: "C=C1C(=O)O[C@H]2[C@H]1CC/C(COC(=O)NCc1ccc(OC)cc1)=C\CC[C@@]1(C)O[C@@H]21"
Not fulfilled

// inclusive: growth at least 70%? input: CCN(CC)CCCC(C)N=c1cc(Nc2cc(=NC(C)CCCN(CC)CC)c3cc(OC)ccc3o2)oc2ccc(OC)cc12 (centres undefined)
Not fulfilled

// inclusive: growth at least 70%? input: "COc1cccc(-c2nc3sccn3c2-c2ccnc(NCCCNS(=O)(=O)c3ccccc3)n2)c1"
Not fulfilled

// inclusive: growth at least 70%? input: "Cc1cc(C(=O)CSc2nc3ccccc3c(=O)[nH]2)c(C)n1C"
Fulfilled

* * *

Listing of recorded growth by entry.
- Test system: KM12 colon
- assay protocol: NCI-60 one-dose screen, 48 h (100 = growth as untreated, 0 = no growth, -100 = all killed)
- assay conditions: 10 µM unless noted
This is part of a sample that, as a whole, favours compounds with a hit. Of some 83,000 tested, about 20% had one in any assay. The source made the active and inactive calls. The calls were made as follows: active = growth percent below 10; inactive = the rest.

Worked cases, growth given:
compound=Cc1nn(-c2ccc(Cl)cc2)c(=O)n1CCOc1ccccc1Cl result="101% (inactive)"
compound="CCN(CC)CCCC(C)N=c1cc(Nc2cc(=NC(C)CCCN(CC)CC)c3cc(OC)ccc3o2)oc2ccc(OC)cc12 (centres undefined)" result="-4.99% (active)"

For "CC(C)(C)OC(=O)N[C@@H](Cc1ccccc1)C(=O)N(Cc1ccccc1)C1(C(=O)NCc2ccccc2)CCN(Cc2ccccc2)CC1" , what is its reported growth?
18.7% (inactive)

For "COc1ccc(C(=O)/C=C/c2ccc(/C=C/c3cc(OC)c(OC)c(OC)c3)cc2)cc1" , what is its reported growth?
29.2% (inactive)

For "CC(=O)Nc1nc(C(=O)N2N=C(C)/C(=C/c3cccs3)C2=O)cs1" , what is its reported growth?
110% (inactive)

* * *

- Test system: HT29 colon
- assay protocol: NCI-60 one-dose screen, 48 h
- assay conditions: 10 µM unless noted
About 83,000 compounds went through this panel and 20% of them were active in at least one assay; those are over-represented in the sample as a whole. Calls of active or inactive are those of the source. How the source made its calls: active means growth percent below 10; inactive means the rest.
Outcome field: choose from active, inactive

In this assay, the call recorded for "CC/C=C\C[C@H](O)C/C=C1/C(=O)C(Cl)=C[C@@H]1C/C=C\CCCC(=O)O" was what?
inactive

In this assay, the call recorded for "COc1cccc(-c2nc3sccn3c2-c2ccnc(NCCNS(=O)(=O)c3ccccc3)n2)c1" was what?
inactive

In this assay, the call recorded for "CCCCC[C@@H]1Cc2cc(O)c(C(=O)O)c3c2[C@H](C[C@@]2(CCCO2)O3)O1" was what?
inactive

In this assay, the call recorded for "COc1ccc(/C=C2\Oc3cc(OCCN4CCCC4)ccc3C2=O)c(OC)c1" was what?
inactive

In this assay, the call recorded for "CCOC(=O)CC(C#N)(CC(=O)OCC)C(=O)OCC" was what?
inactive

* * *

- Test system: UACC-62 melanoma
- assay protocol: NCI-60 one-dose screen, 48 h
- assay conditions: 10 µM unless noted
The panel holds about 83,000 compounds, 20% with a hit somewhere; the sample as a whole holds those more often. Calls of active or inactive are those of the source. Rule for the calls: active = growth percent below 10; inactive = the rest.
Outcome field: choose from active, inactive

molecule="CC(Cc1nnc(SCC(=O)Nc2ccc(I)cc2)n1N)c1ccccc1 (configuration not stated)" subject_of_test="UACC-62 melanoma" class=inactive
molecule="CC(=O)Nc1ccc(S(=O)(=O)NC(CCC(=O)Nc2ccc(Cl)cc2)C(=O)O)cc1 (configuration not stated)" subject_of_test="UACC-62 melanoma" class=inactive
molecule=Cc1ccc2nc(-c3c(CCCO)noc3N)[nH]c(=O)c2c1 subject_of_test="UACC-62 melanoma" class=inactive
molecule=Nc1c(C(=O)Nc2cccc(C(F)(F)F)c2)sc2nc3c(cc12)CCCCCC3 subject_of_test="UACC-62 melanoma" class=inactive
molecule=CC(C)CCC[C@@H](C)[C@H]1CC[C@H]2[C@@H]3CC[C@H]4C/C(=N/O)CC[C@]4(C)[C@H]3CC[C@]12C subject_of_test="UACC-62 melanoma" class=inactive

In this assay, the call recorded for "CC(=O)Nc1nc(C(=O)N2N=C(C)/C(=C/c3cccs3)C2=O)cs1" was what?
inactive

In this assay, the call recorded for "CCSc1nnc(NC(=O)COc2ccc(Cl)cc2C)s1" was what?
inactive

In this assay, the call recorded for "Cc1ccc2nc(SCn3nnc4ccccc4c3=O)[nH]c2c1" was what?
inactive

In this assay, the call recorded for "COc1ccc(/C=C/c2cc(N3CCOCC3)c3cc(F)c(F)cc3n2)cc1OC" was what?
inactive

In this assay, the call recorded for "CCn1c(=O)c2c(=O)c3c4c(oc3oc2c2ccccc21)C(=O)c1ccccc1C4=O" was what?
inactive

In this assay, the call recorded for "CC1CCN(C(=O)CSc2nc3sc4c(c3c(=O)[nH]2)CCCC4)CC1" was what?
inactive

In this assay, the call recorded for "CN(C)CCCNC(=O)C(c1ccccc1)c1ccccc1" was what?
inactive

In this assay, the call recorded for "O=c1[nH]c(-c2cn(-c3ccc(Cl)cc3)nn2)nc2ccccc12" was what?
inactive

In this assay, the call recorded for "C=CCn1c(C)nc2ccc(Nc3nc(Nc4ccc(F)cc4)nc4ccccc34)cc21" was what?
inactive

In this assay, the call recorded for CC(Br)C(O)c1cc2c(cc1Br)OCO2 (configuration not stated) was what?
inactive

In this assay, the call recorded for "CC(C)C[C@H](NC(=O)[C@H](Cc1ccccc1)n1ccc(N2CCCCC2)cc1=O)B(O)O" was what?
active

In this assay, the call recorded for "O=C(Nc1ccc(OCc2nnc(-c3ccc(Cl)cc3)o2)c(F)c1)Nc1ccc(Cl)c(Cl)c1" was what?
inactive

In this assay, the call recorded for Cc1ccc2c(c1)ncn2-c1ncnc2c1CC(C)c1ccccc1N2C (configuration not stated) was what?
inactive

In this assay, the call recorded for "COc1cccc(-c2nc3sccn3c2-c2ccnc(NCCCNS(=O)(=O)c3ccccc3)n2)c1" was what?
inactive

In this assay, the call recorded for "CCO/C=N/NC(=O)c1ccncc1" was what?
inactive

In this assay, the call recorded for "COc1ccc2c(c1)NC(=O)CN2c1nc(C)nc2ccccc12" was what?
inactive

In this assay, the call recorded for "Cn1c(-c2nonc2NC(=O)c2ccc(F)cc2)nc2ccccc21" was what?
inactive
